Exercise: for every item that follows, state its recorded pEC50.
molecular target: PcrV 136-233 (Pseudomonas aeruginosa); assay: ELISA, PcrV coated on plate, chemiluminescence
Give bare numbers, as −log10 of the molar value.

>>> test_value("REGN3514 (antibody, V domains shown, also called Control I; Control I-REGN3514) VH: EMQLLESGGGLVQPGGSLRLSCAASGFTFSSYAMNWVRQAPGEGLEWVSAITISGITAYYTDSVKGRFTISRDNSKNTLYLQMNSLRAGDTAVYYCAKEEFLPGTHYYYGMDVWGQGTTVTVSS VL: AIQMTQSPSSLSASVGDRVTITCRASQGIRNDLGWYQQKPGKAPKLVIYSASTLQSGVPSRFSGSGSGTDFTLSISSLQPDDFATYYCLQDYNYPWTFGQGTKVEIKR")
8.12

Next binder, please.
Query: Quick one: give measured pEC50 for H1H29329P (antibody, V domains shown) VH: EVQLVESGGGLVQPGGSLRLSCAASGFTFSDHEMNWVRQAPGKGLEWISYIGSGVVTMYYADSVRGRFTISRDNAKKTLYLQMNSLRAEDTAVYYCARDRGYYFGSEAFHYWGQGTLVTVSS VL: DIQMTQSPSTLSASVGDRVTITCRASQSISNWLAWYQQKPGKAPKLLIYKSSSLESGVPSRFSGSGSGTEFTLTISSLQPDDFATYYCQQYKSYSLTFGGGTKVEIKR
Response: 8.13
